System: Vero cells
measurement-notes: in vitro
test-context: read-out: Cytotoxicity against Vero cells (IC50); Vero cells
pIC50: −log10 of the molar value.
measured-parameter: pIC50

Challenge: Read the entry CCc1nc(N)nc(N)c1OCCCOc1ccccc1CCC(=O)O [Compound P218, reference compound] and write its reported pIC50.
Response given: < 5.00

----------
system-tested: wild type (WT) pfDHFR (Plasmodium falciparum, UniProt P13922, N108S/R59C)
Sequence (P13922 whole entry R59C/N108S): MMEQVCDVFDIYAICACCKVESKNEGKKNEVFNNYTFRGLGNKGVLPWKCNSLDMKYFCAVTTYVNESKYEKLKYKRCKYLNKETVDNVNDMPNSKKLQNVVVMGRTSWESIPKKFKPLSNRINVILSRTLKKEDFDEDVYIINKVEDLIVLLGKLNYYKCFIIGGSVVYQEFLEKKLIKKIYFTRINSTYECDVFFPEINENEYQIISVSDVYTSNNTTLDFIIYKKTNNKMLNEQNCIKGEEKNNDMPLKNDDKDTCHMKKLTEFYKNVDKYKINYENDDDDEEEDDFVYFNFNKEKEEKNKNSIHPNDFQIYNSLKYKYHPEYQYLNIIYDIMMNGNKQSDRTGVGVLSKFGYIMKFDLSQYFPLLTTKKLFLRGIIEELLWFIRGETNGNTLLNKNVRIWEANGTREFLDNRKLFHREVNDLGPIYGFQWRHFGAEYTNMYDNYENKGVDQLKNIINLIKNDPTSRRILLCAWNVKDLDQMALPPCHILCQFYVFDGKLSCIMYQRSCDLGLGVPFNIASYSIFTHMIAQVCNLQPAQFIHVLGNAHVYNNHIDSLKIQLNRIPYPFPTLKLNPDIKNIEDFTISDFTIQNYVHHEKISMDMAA
measurement-notes: Inhibition of wild type pfDHFR (Ki)
Format: biochemical
measured-parameter: pKi
Give bare numbers, as −log10 of the molar value.

As a guide, the following entries are already answered.
compound | measured-parameter | measured-number
CCc1nc(N)nc(N)c1OCCc1cn(-c2ccc(C(=O)O)cc2)nn1 | pKi | 9.59
CCc1nc(N)nc(N)c1OCc1coc(-c2cccc(OCC(=O)OCc3ccccc3)c2)n1 | pKi | 9.08
CCc1nc(N)nc(N)c1-c1cn(CCc2ccccc2)nn1 | pKi | 8.65
CCc1nc(N)nc(N)c1OCCc1cn(Cc2ccc(O)cc2)nn1 | pKi | 8.05
CCc1nc(N)nc(N)c1-c1cn(Cc2ccccc2)nn1 | pKi | 7.95
CCc1nc(N)nc(N)c1OCCCc1cc(-c2cccc(C(=O)O)c2)no1.Cl [Compound 49, Hydrochloride] | pKi | 9.72
CCc1nc(N)nc(N)c1OCCCc1cn(-c2cccc(C(=O)O)c2)nn1 | pKi | 9.60
CCc1nc(N)nc(N)c1OCc1coc(-c2ccccc2)n1 | pKi | 8.88

Challenge: Read the entry "CCc1nc(N)nc(N)c1OCc1cn(Cc2ccc(O)cc2)nn1" and write its reported pKi.
Response given: 7.27

----------
Test system: P. falciparum TM4/8.2 (wild type)
measurement-notes: microbe, parasite or virus in culture
Format: cell-based, Plasmodium falciparum
test-context: Plasmodium falciparum; in vitro, wild-type strain TM4/8.2; read-out: IC50 P. falciparum TM4/8.2 (WT)
I'd be grateful if you could share measured pIC50 for these entries.
Numbers only, as −log10 of the molar value.

As a guide, the following entries are already answered.
compound | pIC50
CCc1nc(N)nc(N)c1-c1ccc(Cl)cc1 [Pyrimethamine, pyrimethamine, reference compound] | 7.24
CCc1nc(N)nc(N)c1OCc1cn(-c2cccc(C(=O)O)c2)nn1.Cl [Compound 16, Hydrochloride] | 6.22
CCc1nc(N)nc(N)c1OCc1csc(-c2ccc(C(=O)O)cc2)n1 | 5.58
CCc1nc(N)nc(N)c1OCc1coc(-c2ccccc2)n1 | 5.65
CCc1nc(N)nc(N)c1OCCCc1cn(-c2cccc(C(=O)O)c2)nn1 | 8.19
CCc1nc(N)nc(N)c1OCc1csc(-c2cccc(OCC(=O)O)c2)n1 | 6.26
CCc1nc(N)nc(N)c1OCc1coc(-c2cccc(OCC(=O)OCc3ccccc3)c2)n1 | 5.75
CCc1nc(N)nc(N)c1OCc1csc(-c2cccc(OCC(=O)OCc3ccccc3)c2)n1 | 6.40
CCc1nc(N)nc(N)c1OCc1coc(-c2cccc([N+](=O)[O-])c2)n1 | 5.58
CCc1nc(N)nc(N)c1OCc1csc(-c2cccc(C)c2)n1 | 6.08

Hey, can you go through the list below and give me pIC50 for every item?
1. CCc1nc(N)nc(N)c1-c1cn(Cc2ccc(C(=O)O)cc2)nn1
2. CCc1nc(N)nc(N)c1OCc1csc(-c2cccc([N+](=O)[O-])c2)n1
3. CCc1nc(N)nc(N)c1OCc1coc(-c2cccc(OCC(=O)O)c2)n1
4. CCc1nc(N)nc(N)c1-c1cn(CCCOc2ccc(Cl)cc2)nn1
5. CCc1nc(N)nc(N)c1OCc1csc(-c2cccc(C(=O)O)c2)n1.Cl [Compound 66, Hydrochloride]

Response given:
[5.10, 6.34, 5.42, 5.62, 5.66]

Hey, can you go through the list below and give me pIC50 for every item?
1. CCc1nc(N)nc(N)c1OCc1cc(-c2cccc(C(=O)O)c2)no1
2. CCc1nc(N)nc(N)c1OCc1coc(-c2ccc(Cl)cc2)n1

Response given:
1. 6.55
2. 6.06

----------
Test system: P. falciparum TM4/8.2 (wild type)
measurement-notes: microbe, parasite or virus in culture
Assay type: cell-based, Plasmodium falciparum
test-context: Plasmodium falciparum; in vitro, wild-type strain TM4/8.2; read-out: IC50 P. falciparum TM4/8.2 (WT)
pIC50: −log10 of the molar value.
Label 1 when pIC50 >= 7; otherwise -1.

Challenge: Is pIC50 at least 7? Consider CCc1nc(N)nc(N)c1OCc1cn(-c2ccc(C(=O)O)cc2)nn1 [Compound 19]
Response given: -1

Challenge: Is pIC50 at least 7? Consider CCc1nc(N)nc(N)c1OCc1cc(-c2ccc(Br)cc2)no1 [Compound 36]
Response given: -1

Challenge: Is pIC50 at least 7? Consider CCc1nc(N)nc(N)c1OCc1cn(Cc2cc(F)c(O)c(F)c2)nn1 [Compound 27]
Response given: -1

Challenge: Is pIC50 at least 7? Consider CCc1nc(N)nc(N)c1OCc1cn(-c2ccc([N+](=O)[O-])cc2)nn1 [Compound 17]
Response given: -1

Challenge: Is pIC50 at least 7? Consider CCc1nc(N)nc(N)c1OCCCc1cc(-c2ccc(Cl)cc2)no1 [Compound 45]
Response given: -1

Challenge: Is pIC50 at least 7? Consider CCc1nc(N)nc(N)c1OCCc1csc(-c2ccccc2)n1 [Compound 76]
Response given: 1

Challenge: Is pIC50 at least 7? Consider CCc1nc(N)nc(N)c1OCCCc1cc(-c2cccc(C(=O)O)c2)no1.Cl [Compound 49, Hydrochloride]
Response given: 1

Challenge: Is pIC50 at least 7? Consider CCc1nc(N)nc(N)c1OCCCc1cc(-c2cccc(C(=O)OC)c2)no1 [Compound 48]
Response given: 1

Challenge: Is pIC50 at least 7? Consider CCc1nc(N)nc(N)c1OCc1csc(-c2ccc(Br)cc2)n1 [Compound 71]
Response given: -1

----------
Where a name gives a salt, the structure may show the parent alone.
measured-parameter: melting point

Hey, can you go through the list below and give me melting point for every item?
1. CCc1nc(N)nc(N)c1-c1cn(CCc2ccccc2)nn1 (as salt: hydrochloride)
2. CCc1nc(N)nc(N)c1OCc1cn(Cc2cccc(C(=O)O)c2)nn1 (as salt: hydrochloride)

Response given:
1. 203 to 204.5 °C
2. 170 to 171 °C

Hey, can you go through the list below and give me melting point for every item?
1. CCc1nc(N)nc(N)c1-c1cn(Cc2ccc(OC(=O)N(c3ccccc3)c3ccccc3)cc2)nn1 (as salt: hydrochloride)
2. CCc1nc(N)nc(N)c1OCc1cc(-c2ccc(F)cc2)no1 (as salt: hydrochloride)

Response given:
["138 to 139 °C", "231 to 232 °C"]

----------
system-tested: quadruple mutant N51I + C59R + S108N + I164L (QM) pfDHFR (Plasmodium falciparum, UniProt P13922, I164L/N51I)
Sequence (P13922 whole entry N51I/I164L): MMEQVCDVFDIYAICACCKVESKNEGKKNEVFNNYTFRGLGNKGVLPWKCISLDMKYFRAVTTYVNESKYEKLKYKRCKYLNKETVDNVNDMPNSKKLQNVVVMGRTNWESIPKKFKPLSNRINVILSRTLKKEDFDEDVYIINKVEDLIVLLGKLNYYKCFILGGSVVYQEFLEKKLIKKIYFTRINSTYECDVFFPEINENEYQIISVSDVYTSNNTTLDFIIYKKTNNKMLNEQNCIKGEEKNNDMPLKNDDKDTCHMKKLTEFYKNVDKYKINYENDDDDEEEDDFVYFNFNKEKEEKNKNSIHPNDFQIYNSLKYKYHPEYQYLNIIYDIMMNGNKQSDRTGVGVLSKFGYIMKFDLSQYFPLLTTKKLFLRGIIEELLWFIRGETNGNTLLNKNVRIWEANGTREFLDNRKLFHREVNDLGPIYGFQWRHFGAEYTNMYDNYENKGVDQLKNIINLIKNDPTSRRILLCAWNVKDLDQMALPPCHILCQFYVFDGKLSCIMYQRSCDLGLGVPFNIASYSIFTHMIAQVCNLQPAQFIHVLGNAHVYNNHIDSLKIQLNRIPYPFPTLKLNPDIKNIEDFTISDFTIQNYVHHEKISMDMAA
measurement-notes: Inhibition of quadruple mutant pfDHFR (Ki)
measured-parameter: Ki (nM)
Numbers only, in nM.

As a guide, the following entries are already answered.
compound | scale-unit | Ki
CCc1nc(N)nc(N)c1OCCCc1cc(-c2cccc(C(=O)OC)c2)no1 [Compound 48] | nM | 0.87
CCc1nc(N)nc(N)c1OCc1csc(-c2ccc(C)cc2)n1 [Compound 67] | nM | 27.3
CCc1nc(N)nc(N)c1OCCCc1cn(-c2ccc(C(=O)OC)cc2)nn1 [Compound 24] | nM | 1.9

Hey, can you go through the list below and give me Ki for every item?
1. CCc1nc(N)nc(N)c1-c1cn(-c2ccccc2)nn1 [Compound 1]
2. CCc1nc(N)nc(N)c1-c1cn(Cc2ccccc2)nn1 [Compound 3]

Response given:
[6020, 13.9]

Hey, can you go through the list below and give me Ki for every item?
1. CCc1nc(N)nc(N)c1OCc1cn(Cc2cccc(C(=O)O)c2)nn1 [Compound 26]
2. CCc1nc(N)nc(N)c1OCc1coc(-c2ccc(Cl)cc2)n1 [Compound 55]
3. CCc1nc(N)nc(N)c1OCCc1cn(-c2ccc(C(=O)O)cc2)nn1 [Compound 22]
4. CCc1nc(N)nc(N)c1OCc1cn(-c2ccc(C(=O)OC)cc2)nn1 [Compound 18]
5. CCc1nc(N)nc(N)c1OCc1cn(-c2cccc(C(=O)O)c2)nn1.Cl [Compound 16, Hydrochloride]
6. CCc1nc(N)nc(N)c1OCc1cc(-c2ccc(Br)cc2)no1 [Compound 36]

Response given:
1: 388; 2: 32.9; 3: 4.64; 4: 833; 5: 6.18; 6: 64.6

Hey, can you go through the list below and give me Ki for every item?
1. CCc1nc(N)nc(N)c1OCc1csc(-c2cccc(C(=O)O)c2)n1.Cl [Compound 66, Hydrochloride]
2. CCc1nc(N)nc(N)c1OCCc1csc(-c2ccccc2)n1 [Compound 76]
3. CCc1nc(N)nc(N)c1OCc1csc(-c2ccc(OC)cc2)n1 [Compound 68]
4. CCc1nc(N)nc(N)c1-c1cn(CCc2ccccc2)nn1 [Compound 7]
5. CCc1nc(N)nc(N)c1OCc1cc(-c2ccc(OC)cc2)no1 [Compound 42]
6. CCc1nc(N)nc(N)c1-c1cn(CCOc2ccc(Cl)cc2)nn1 [Compound 9]
7. CCc1nc(N)nc(N)c1OCCc1cn(-c2cccc(C(=O)O)c2)nn1 [Compound 20]
8. CCc1nc(N)nc(N)c1OCc1cc(-c2ccccc2)no1 [Compound 33]

Response given:
[36.7, 7.28, 16, 70.1, 64.4, 10.8, 1.73, 38.1]
